Experiment: Tanguay_ZF_120hpf_CIRC_legacy: (Legacy) Oregon State University Tanguay Lab 120 Hour Post-fertilization zebrafish Assay for Circulatory Malformation (AID 2283651)
Experimental: Tanguay_ZF_120hpf_legacy is a whole embryo, multiplexed endpoint assay using zebrafish larvae exposed for 120 hours post fertilization on a 96-well plate.Tanguay_ZF_120hpf_CIRC_legacy is one of one assay component(s) measured or calculated from the Tanguay_ZF_120hpf_legacy assay. […] This assay endpoint, Tanguay_ZF_120hpf_CIRC_legacy, was analyzed in the positive analysis fitting direction relative to DMSO as the negative control and baseline of activity. […]
Records with an inconclusive call do not appear. Activity calls are given as the source filed them. How the source made its calls: active means hit-call score of the fitted dose curve at least 0.9, where 1 is the maximum; inconclusive means response in the unintended direction; inactive means score below 0.9.
Labels: active, inactive

- COMPOUND: "Brc1ccc(Oc2ccccc2)cc1"
  CLASS: "inactive"
- COMPOUND: "CN(C)C(=O)Nc1ccc(Cl)cc1"
  CLASS: "inactive"
- COMPOUND: "Cc1ccc(N)c(N)c1"
  CLASS: "inactive"
- COMPOUND: "CN(C)c1ccccc1"
  CLASS: "inactive"
- COMPOUND: "CNC(=O)Oc1cccc2c1OC(C)(C)C2"
  CLASS: "inactive"
- COMPOUND: "[Cl-].[Cl-].[Hg+2]"
  CLASS: "active"
- COMPOUND: "CC(C)(C)OOC(C)(C)CCC(C)(C)OOC(C)(C)C"
  CLASS: "inactive"
- COMPOUND: "OCCCl"
  CLASS: "inactive"
- COMPOUND: "Oc1ccccc1Cl"
  CLASS: "inactive"
- COMPOUND: "CCCCCCCCn1sccc1=O"
  CLASS: "inactive"
- COMPOUND: "COP(=S)(OC)SCN1C(=O)c2ccccc2C1=O"
  CLASS: "inactive"
- COMPOUND: "COc1cc(C=O)cc2c1[C@H](COC(N)=O)[C@]1(OC(C)=O)ON2C[C@H]2[C@@H]1N2C(C)=O"
  CLASS: "inactive"
- COMPOUND: "O=C(Oc1ccc(Br)cc1)N1CCN2CCC1CC2"
  CLASS: "inactive"
- COMPOUND: "Cc1ccc([N+](=O)[O-])cc1"
  CLASS: "inactive"
- COMPOUND: "COC(=O)c1ccccc1N"
  CLASS: "inactive"
- COMPOUND: "Nc1ccc(Cl)cc1N"
  CLASS: "inactive"
- COMPOUND: "ClCCOCCCl"
  CLASS: "inactive"
- COMPOUND: "COC(=O)Nc1nc2ccccc2[nH]1"
  CLASS: "inactive"
- COMPOUND: "CC(C)(C)OOC(=O)c1ccccc1"
  CLASS: "inactive"
- COMPOUND: "Cc1ccc(N=C=O)cc1N=C=O"
  CLASS: "inactive"
- COMPOUND: "O=C(O)C1C2CCC(O2)C1C(=O)O (stereo not drawn)"
  CLASS: "inactive"
- COMPOUND: "C1=Cc2cccc3cccc1c23"
  CLASS: "inactive"
- COMPOUND: "Nc1cc(Cl)cc(C(=O)O)c1Cl"
  CLASS: "inactive"
- COMPOUND: "CC(C)(OOC(C)(C)c1ccccc1)c1ccccc1"
  CLASS: "inactive"
- COMPOUND: "c1ccc2c(c1)oc1ccccc12"
  CLASS: "inactive"
- COMPOUND: "[O-][Cl+]O"
  CLASS: "inactive"
- COMPOUND: "CCC[CH2][Sn]([Cl])([CH2]CCC)[CH2]CCC"
  CLASS: "inactive"
- COMPOUND: "CO[C@@H]1[C@H](OC(=O)NC(=O)CCl)CC[C@]2(CO2)[C@H]1[C@@]1(C)O[C@@H]1CC=C(C)C"
  CLASS: "inactive"
- COMPOUND: "CCCCOC(=O)c1ccccc1C(=O)OCc1ccccc1"
  CLASS: "inactive"
- COMPOUND: "CC(O)CCO (stereo not drawn)"
  CLASS: "inactive"
- COMPOUND: "CCCCC(CC)COC(=O)c1ccc(C(=O)OCC(CC)CCCC)c(C(=O)OCC(CC)CCCC)c1 (stereo not drawn)"
  CLASS: "inactive"
- COMPOUND: "Clc1ccc(C(c2ccc(Cl)cc2)C(Cl)(Cl)Cl)cc1"
  CLASS: "inactive"
- COMPOUND: "c1ccc(C2CO2)cc1 (stereo not drawn)"
  CLASS: "inactive"
- COMPOUND: "CCCCCCCCCCCCCN1CC(C)OC(C)C1 (stereo not drawn)"
  CLASS: "inactive"
- COMPOUND: "CCN(CC)CCO"
  CLASS: "inactive"
- COMPOUND: "N#CC(Br)(Br)C(N)=O"
  CLASS: "inactive"
- COMPOUND: "Oc1ccc2ccc3cccc4ccc1c2c34"
  CLASS: "inactive"
- COMPOUND: "ClC1=C(Cl)C2(Cl)C3C(Cl)C=CC3C1(Cl)C2(Cl)Cl (stereo not drawn)"
  CLASS: "inactive"
- COMPOUND: "Cc1ccc(N)cc1"
  CLASS: "inactive"
- COMPOUND: "Clc1ccc(Cl)c(Cl)c1"
  CLASS: "inactive"
- COMPOUND: "CCOC(=O)[C@]1(c2ccccc2)Oc2ccccc2[C@@H]1N"
  CLASS: "inactive"
- COMPOUND: "Cc1cc(N=Nc2ccccc2C)ccc1N"
  CLASS: "inactive"
- COMPOUND: "Nc1ccc(N=Nc2ccccc2)cc1"
  CLASS: "inactive"
